- Test system: Caco-2
- method_notes: Growth inhibition of human Caco2 cells at 50 uM after 48 hrs by SRB assay
- Type: functional
- test_parameters: Caco-2, 48 h, read-out: GI
inhibition of growth at 50 µM below 20% gives 0; inhibition of growth at 50 µM at or above it gives 1.

Please review the entries below; each comes with its answer.
INSERT INTO results (compound_structure, answer_label) VALUES
  ('O=C1C(=O)N(CCn2cc(CN3C(=O)C(=O)c4cc(Cl)ccc43)nn2)c2ccccc21', 1),
  ('O=C1C(=O)N(CCn2cc(CN3C(=O)C(=O)c4cc(F)ccc43)nn2)c2ccccc21', 0);

Reported inhibition of growth at 50 µM at or above 20%? O=C1C(=O)N(CCn2cc(CN3C(=O)C(=O)c4cc(F)ccc43)nn2)c2ccc(F)cc21
0

Proceed to Cc1ccc2c(c1)C(=O)C(=O)N2Cc1cn(CCN2C(=O)C(=O)c3ccccc32)nn1
0

Proceed to O=C1C(=O)N(CCn2cc(CN3C(=O)C(=O)c4ccccc43)nn2)c2ccc(F)cc21
0

Proceed to O=C1C(=O)N(CCn2cc(CN3C(=O)C(=O)c4cc(Br)ccc43)nn2)c2ccc(Cl)cc21
1

* * *

- System: THP-1
- method_notes: Growth inhibition of human THP1 cells at 10 uM after 48 hrs by SRB assay
- Format: functional
- test_parameters: THP-1, 48 h, read-out: GI
result_type: inhibition of growth at 10 µM (%)
I only need the number, in %, no unit after it.

Please review the entries below; each comes with its answer.
INSERT INTO results (compound_structure, result_type, numeric_result) VALUES
  ('O=C1C(=O)N(CCn2cc(CN3C(=O)C(=O)c4cc(Br)ccc43)nn2)c2ccccc21', 'inhibition of growth at 10 µM', 10),
  ('O=C1C(=O)N(CCn2cc(CN3C(=O)C(=O)c4cc(Br)ccc43)nn2)c2ccc(F)cc21', 'inhibition of growth at 10 µM', 26),
  ('O=C1C(=O)N(CCn2cc(CN3C(=O)C(=O)c4ccccc43)nn2)c2ccc(F)cc21', 'inhibition of growth at 10 µM', 8),
  ('Cc1ccc2c(c1)C(=O)C(=O)N2Cc1cn(CCN2C(=O)C(=O)c3cc(F)ccc32)nn1', 'inhibition of growth at 10 µM', 14),
  ('O=C1C(=O)N(CCn2cc(CN3C(=O)C(=O)c4cc(Br)ccc43)nn2)c2ccc(Cl)cc21', 'inhibition of growth at 10 µM', 28);

Switching to the query record.
What value of inhibition of growth at 10 µM on THP-1 does O=C1C(=O)N(CCn2cc(CN3C(=O)C(=O)c4cc([N+](=O)[O-])ccc43)nn2)c2ccc(F)cc21 have?
2

* * *

Item-by-item account of inhibition of growth at 10 µM
- System: THP-1
- method_notes: Growth inhibition of human THP1 cells at 10 uM after 48 hrs by SRB assay
- Type: functional
- test_parameters: THP-1, 48 h, read-out: GI

Please review the entries below; each comes with its answer.
INSERT INTO results (compound_structure, result_type, result) VALUES
  ('O=C1C(=O)N(CCn2cc(CN3C(=O)C(=O)c4ccccc43)nn2)c2ccccc21', 'inhibition of growth at 10 µM', '100%'),
  ('O=C1C(=O)N(CCn2cc(CN3C(=O)C(=O)c4cc(Cl)ccc43)nn2)c2ccc(F)cc21', 'inhibition of growth at 10 µM', '20%'),
  ('O=C1C(=O)N(CCn2cc(CN3C(=O)C(=O)c4cc([N+](=O)[O-])ccc43)nn2)c2ccc(Cl)cc21', 'inhibition of growth at 10 µM', '29%');

What does the data say about its inhibition of growth at 10 µM? Entry: O=C1C(=O)N(CCn2cc(CN3C(=O)C(=O)c4cc(F)ccc43)nn2)c2ccccc21
10%

Proceed to Cc1ccc2c(c1)C(=O)C(=O)N2Cc1cn(CCN2C(=O)C(=O)c3ccccc32)nn1
89%

Proceed to Cc1ccc2c(c1)C(=O)C(=O)N2Cc1cn(CCN2C(=O)C(=O)c3cc(Cl)ccc32)nn1
71%

Proceed to O=C1C(=O)N(CCn2cc(CN3C(=O)C(=O)c4cc(Cl)ccc43)nn2)c2ccccc21
80%

Proceed to O=C1C(=O)N(CCn2cc(CN3C(=O)C(=O)c4cc(F)ccc43)nn2)c2ccc(F)cc21
1%

Proceed to O=C1C(=O)N(CCn2cc(CN3C(=O)C(=O)c4cc([N+](=O)[O-])ccc43)nn2)c2ccccc21
11%
